- test_system: Type III PDE (Rattus norvegicus, UniProt Q62865)
- Sequence (Q62865 whole entry): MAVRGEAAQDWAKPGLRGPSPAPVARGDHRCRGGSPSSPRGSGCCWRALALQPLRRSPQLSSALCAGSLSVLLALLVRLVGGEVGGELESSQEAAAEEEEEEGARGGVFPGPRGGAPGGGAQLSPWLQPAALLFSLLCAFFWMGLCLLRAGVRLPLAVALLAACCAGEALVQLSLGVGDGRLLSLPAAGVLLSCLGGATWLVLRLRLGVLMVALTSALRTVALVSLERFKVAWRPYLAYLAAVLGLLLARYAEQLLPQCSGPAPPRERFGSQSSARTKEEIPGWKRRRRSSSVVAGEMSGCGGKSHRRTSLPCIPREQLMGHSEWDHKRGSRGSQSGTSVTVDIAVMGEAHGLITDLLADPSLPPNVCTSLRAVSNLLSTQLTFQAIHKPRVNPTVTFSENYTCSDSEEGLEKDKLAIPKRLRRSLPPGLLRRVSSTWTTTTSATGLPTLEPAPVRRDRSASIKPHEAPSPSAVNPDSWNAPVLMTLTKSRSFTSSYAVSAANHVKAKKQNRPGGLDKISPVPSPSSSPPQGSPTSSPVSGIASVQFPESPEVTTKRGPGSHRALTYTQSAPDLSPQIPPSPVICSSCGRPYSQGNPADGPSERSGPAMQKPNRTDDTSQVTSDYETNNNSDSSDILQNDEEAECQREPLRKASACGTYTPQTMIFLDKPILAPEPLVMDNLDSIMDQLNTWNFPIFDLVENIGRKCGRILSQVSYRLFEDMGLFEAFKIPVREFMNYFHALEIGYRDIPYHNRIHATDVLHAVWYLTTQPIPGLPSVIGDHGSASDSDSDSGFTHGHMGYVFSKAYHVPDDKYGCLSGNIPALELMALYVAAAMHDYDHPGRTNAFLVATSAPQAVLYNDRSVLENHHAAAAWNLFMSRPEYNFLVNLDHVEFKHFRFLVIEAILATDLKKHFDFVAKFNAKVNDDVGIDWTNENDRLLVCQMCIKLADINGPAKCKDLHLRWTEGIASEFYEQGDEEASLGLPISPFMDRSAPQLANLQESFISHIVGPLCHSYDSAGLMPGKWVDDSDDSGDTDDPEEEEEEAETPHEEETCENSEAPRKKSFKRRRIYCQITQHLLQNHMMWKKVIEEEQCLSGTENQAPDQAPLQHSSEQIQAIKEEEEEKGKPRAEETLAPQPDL
- test_method_notes: PDE III inhibitory activity (Test Example 1)
- experimental_context: Table I; PDE III partially purified from rat blood platelets, 3H-cAMP substrate
I'd appreciate it if you could supply pIC50 values for the items below.
Here pIC50 is given on a logarithmic scale as minus log10 of the concentration in mol/L.

## Task Find the measured pIC50 of COc1ccc(NC2=C(C)C(=O)CC2)cc1O[C@@H]1C[C@H]2CC[C@@H]1C2 (racemic) [(±)-isomer, reference compound] with Type III PDE (Rattus norvegicus, UniProt Q62865) as test system.
## Result 5.41

## Task // output pIC50; input COc1ccc(NC2=C(C)C(=O)CC2)cc1O[C@H]1C[C@@H]2CC[C@H]1C2 [(+)-isomer] ; system Type III PDE (Rattus norvegicus, UniProt Q62865)
## Result 5.80

## Task Please indicate recorded pIC50 of COc1ccc(NC2=C(C)C(=O)CC2)cc1O[C@@H]1C[C@H]2CC[C@@H]1C2 [(−)-isomer] measured with Type III PDE (Rattus norvegicus, UniProt Q62865).
## Result 5.04
